# Test system: WEEV California
# assay.explanation: microbe, parasite or virus in culture
# Format: cell-based
# particulars: Western equine encephalitis virus, Vero 76, 48 h, read-out: WEEV California EC50 nM
readout.name: EC50

q: Given the molecule O=c1c2cc([N+](=O)[O-])ccc2nc(C2CCCN2)n1-c1ccc(F)cc1 (stereo not shown) , what is its reported EC50?
a: 151 to 500 nM

q: Given the molecule COc1ccc(-n2c(-c3cocn3)nc3c(-c4ccc(C)nc4)cc(C#N)cc3c2=O)cc1F , what is its reported EC50?
a: > 1000 nM

q: Given the molecule COc1ccc(-n2c([C@H]3CCCN3)nc3c(C)cc(C#N)cc3c2=O)cc1 , what is its reported EC50?
a: 1 to 50 nM

q: Given the molecule COc1ccc(-c2cc(C#N)cc3c(=O)n(-c4ccc(OC)c(F)c4)c(C4CCCN4)nc23)cn1 (stereo not shown) , what is its reported EC50?
a: 1 to 50 nM

q: Given the molecule COc1c(F)cc(-n2c(C3C[C@H](F)CN3)nc3c(-c4cc(C)nc(C)c4)cc(C#N)cc3c2=O)cc1F (stereo partly shown) , what is its reported EC50?
a: 51 to 150 nM

q: Given the molecule COc1c(F)cc(-n2c(C34CC(CN3)C4)nc3c(-c4cnc(C)c(C)c4)cc(C#N)cc3c2=O)cc1F , what is its reported EC50?
a: 1 to 50 nM

q: Given the molecule COc1ccc(-n2c([C@H]3CCCN3)nc3c(F)cc(C#N)cc3c2=O)cc1 , what is its reported EC50?
a: 51 to 150 nM

###

Here, each record is paired with measured EC50 data.
# Test system: VEEV TC83
# assay.explanation: microbe, parasite or virus in culture
# Assay type: cell-based
# particulars: Venezuelan equine encephalitis virus, Vero 76, 48 h, read-out: VEEV TC83 EC50 nM

Look over these answered cases.
q: Identify the measured EC50 of O=c1c2cc([N+](=O)[O-])ccc2nc([C@H]2CCCN2)n1-c1ccc(Cl)cc1 for VEEV TC83.
a: 1 to 50 nM

q: Identify the measured EC50 of COc1ccc(-n2c(C3CCCN3)nc3c(-c4ccc(CO)nc4)cc(C#N)cc3c2=O)cc1F (centres unmarked) for VEEV TC83.
a: 1 to 50 nM

q: Identify the measured EC50 of O=c1c2cc([N+](=O)[O-])ccc2nc(C2CCCN2)n1-c1cccc(Cl)c1 (centres unmarked) for VEEV TC83.
a: 51 to 150 nM

More entries:
q: Identify the measured EC50 of COc1ccc(-n2c([C@H]3CCCN3)nc3c(C)cc(C#N)cc3c2=O)cc1F for VEEV TC83.
a: 1 to 50 nM

q: Identify the measured EC50 of COc1ccc(-n2c([C@H]3CCCN3)nc3c(-c4ccncc4)cc(C#N)cc3c2=O)cc1F for VEEV TC83.
a: 1 to 50 nM

q: Identify the measured EC50 of COc1ccc(-n2c(C3CCCN3C3CCOCC3)nc3ccc(F)c(F)c3c2=O)cc1 (stereo in doubt) for VEEV TC83.
a: > 1000 nM

q: Identify the measured EC50 of COc1c(F)cc(-n2c(C3CCCNC3)nc3c(-c4ccc(C)nc4)cc(C#N)cc3c2=O)cc1F (centres unmarked) for VEEV TC83.
a: 51 to 150 nM

q: Identify the measured EC50 of O=c1c2cc([N+](=O)[O-])ccc2nc([C@H]2CCCN2)n1-c1ccc(OC(F)(F)F)cc1 for VEEV TC83.
a: > 1000 nM

q: Identify the measured EC50 of COc1ccc(-n2c([C@@H]3CCCN3)nc3c(F)cc(C#N)cc3c2=O)cc1 for VEEV TC83.
a: 501 to 1000 nM

q: Identify the measured EC50 of COc1ccc(-n2c(C3CCCN3)nc3c(-c4ccc(N(C)C)nc4)cc(C#N)cc3c2=O)cc1F (centres unmarked) for VEEV TC83.
a: 1 to 50 nM

q: Identify the measured EC50 of COCCOc1c(F)cc(-n2c(C3CCCN3)nc3c(-c4ccnc(C)c4)cc(C#N)cc3c2=O)cc1F (centres unmarked) for VEEV TC83.
a: 51 to 150 nM
